Please respond with reported N. fowleri ATCC 30215 SI (CC50/IC50) for every item in the list.
- Test system: N. fowleri ATCC® 30215™ trophozoites
- ASSAY_EXPLANATION: In vitro amoebicidal activity against N. fowleri trophozoites (alamarBlue), strain ATCC 30215
- Type: cell-based, Naegleria fowleri
- CONDITION_CONTEXT: trophozoite stage; selectivity index vs murine macrophages J774
- Method: The in vitro activity of the tested compounds against Naegleria fowleri trophozoites was evaluated using two clinical strains obtained from the American Type Culture Collection (ATCC® 30808™ and ATCC® 30215™). […] The trophocidal activity of the compounds was evaluated using the alamarBlue® colorimetric assay. […] Different concentrations of the evaluated compounds, prepared in fresh Bactocasitone medium, were added to the wells (50 µL per well). […]

Lab note: measured N. fowleri ATCC 30215 SI (CC50/IC50) of C[C@@H]1[C@H](O)[C@@H](C)/C=C/C=C/C=C/C=C/C=C/C=C/C=C/[C@H](O[C@@H]2O[C@H](C)[C@@H](O)[C@H](N)[C@@H]2O)C[C@@H]2O[C@](O)(C[C@@H](O)C[C@@H](O)[C@H](O)CC[C@@H](O)C[C@@H](O)CC(=O)O[C@H]1C)C[C@H](O)[C@H]2C(=O)O [Amphotericin B, reference compound] was >1250

Lab note: measured N. fowleri ATCC 30215 SI (CC50/IC50) of COC(=O)[C@]12CC[C@@H](C)[C@H](C)C1C1=CCC3[C@@]4(C)CC[C@H](OC(=O)CCC(=O)O)C(C)(C)C4CC[C@@]3(C)[C@]1(C)CC2 (some centres unmarked) [Compound 7, 3-O-(Hemisuccinyl)-methyl ursolate] was >5.90

Lab note: measured N. fowleri ATCC 30215 SI (CC50/IC50) of CCCCCCCCCCCCCCCCOP(=O)([O-])OCC[N+](C)(C)C [Miltefosine, reference compound] was 1.57

Lab note: measured N. fowleri ATCC 30215 SI (CC50/IC50) of COC(=O)[C@]12CC[C@@H](C)[C@H](C)C1C1=CCC3[C@@]4(C)CC[C@H](OC(=O)CCCC(=O)O)C(C)(C)C4CC[C@@]3(C)[C@]1(C)CC2 (some centres unmarked) [Compound 8, 3-O-(Hemiglutaryl)-methyl ursolate] was 2.20

Lab note: measured N. fowleri ATCC 30215 SI (CC50/IC50) of C[C@H]1[C@H](C)CC[C@]2(C(=O)O)CC[C@]3(C)C(=CC[C@@H]4[C@@]5(C)CC[C@H](O)C(C)(C)[C@@H]5CC[C@]43C)[C@H]12 [Compound 1, ursolic acid] was 0.43
